Hey, just so you know, these numbers are from the supplement of paper PMC10307832.

Listed compounds paired with reported relative viability
System: HCC-15
Test Summary: relative viability (nuclei count vs DMSO), 5 days (fraction); higher = more cells survive
Condition Parameters: first compound 2.53 µM
Lab note: record the figure alone, no unit after it.

Use the examples below as a reference point.
Report relative viability for Cc1cnc(-c2cnc(NCCNc3ccc(C#N)cn3)nc2-c2ccc(Cl)cc2Cl)[nH]1 + Nc1ncn([C@H]2C[C@H](O)[C@@H](CO)O2)c(=O)n1 [Decitabine] (partner 2 µM) please.
0.704

// repeat for Cc1cnc(-c2cnc(NCCNc3ccc(C#N)cn3)nc2-c2ccc(Cl)cc2Cl)[nH]1 + Cc1nc(NC(=O)N2CCC[C@H]2C(N)=O)sc1-c1ccnc(C(C)(C)C(F)(F)F)c1 [Alpelisib] (partner 2 µM) and report
0.881

Proceed to O=c1[nH]c2ccccc2n1C1CCN(CCCC(c2ccc(F)cc2)c2ccc(F)cc2)CC1 [Pimozide] + Nc1ncn([C@H]2C[C@H](O)[C@@H](CO)O2)c(=O)n1 [Decitabine] (partner 2 µM)
0.551

Shift focus to the following entry.
Look up relative viability for this compound: Cc1cnc(-c2cnc(NCCNc3ccc(C#N)cn3)nc2-c2ccc(Cl)cc2Cl)[nH]1 + C[C@]1(O)C[C@@H](c2nc(-c3ccc4ccc(-c5ccccc5)nc4c3)c3c(N)nccn32)C1 [Linsitinib] (partner 1 µM)
0.835

---

Tested on: NCI-H1793
Test Summary: relative viability (nuclei count vs DMSO), 5 days (fraction); higher = more cells survive
Condition Parameters: first compound 0.002 µM
Property Name: relative viability
Write the number on its own, no unit after it.

Using the record for CC(=O)O[C@@]12CO[C@@H]1C[C@H](O)[C@@]1(C)C(=O)[C@H](O)C3=C(C)[C@@H](OC(=O)[C@H](O)[C@@H](NC(=O)OC(C)(C)C)c4ccccc4)C[C@@](O)([C@@H](OC(=O)c4ccccc4)[C@H]21)C3(C)C [Docetaxel] + O=C(c1cc(Cc2n[nH]c(=O)c3ccccc23)ccc1F)N1CCN(C(=O)C2CC2)CC1 [Olaparib] (partner 8 µM) , report its relative viability.
0.287

Could you now look at the following compound, please?
For the compound shown here, CC(=O)O[C@@]12CO[C@@H]1C[C@H](O)[C@@]1(C)C(=O)[C@H](O)C3=C(C)[C@@H](OC(=O)[C@H](O)[C@@H](NC(=O)OC(C)(C)C)c4ccccc4)C[C@@](O)([C@@H](OC(=O)c4ccccc4)[C@H]21)C3(C)C [Docetaxel] + Nc1nc2[nH]cc(CCc3ccc(C(=O)N[C@@H](CCC(=O)O)C(=O)O)cc3)c2c(=O)[nH]1 [Pemetrexed] (partner 0.2 µM) , give the reported relative viability.
0.251

---

Tested on: ChaGo-K-1
Test Summary: relative viability (nuclei count vs DMSO), 5 days (fraction); higher = more cells survive
Condition Parameters: first compound 5 µM
relative viability: recorded values
Output spec: single numeric token, no unit.

Example results:
So what does the record say about relative viability for O=C(O)CCCCC(CCSCc1ccccc1)SCc1ccccc1 (configuration not stated) [CPI-613] + C[C@@H](Oc1cc(-c2cnn(C3CCNCC3)c2)cnc1N)c1c(Cl)ccc(F)c1Cl [Crizotinib] (partner 1 µM) ?
1.14

Continue with O=C(O)CCCCC(CCSCc1ccccc1)SCc1ccccc1 (configuration not stated) [CPI-613] + Cc1cc(Nc2cc(N3CCN(C)CC3)nc(Sc3ccc(NC(=O)C4CC4)cc3)n2)n[nH]1 [Tozasertib] (partner 0.1 µM)
0.207

What would you report for O=C(O)CCCCC(CCSCc1ccccc1)SCc1ccccc1 (configuration not stated) [CPI-613] + O=C(c1cc(Cc2n[nH]c(=O)c3ccccc23)ccc1F)N1CCN(C(=O)C2CC2)CC1 [Olaparib] (partner 8 µM) ?
0.4

Further cases:
# get_value(readout='relative viability', item= O=C(O)CCCCC(CCSCc1ccccc1)SCc1ccccc1 (configuration not stated) [CPI-613] + COc1cccc2cc(-c3nc([C@H]4CC[C@H](C(=O)O)CC4)n4ncnc(N)c34)[nH]c12 [OSI-027] (partner 0.5 µM) )
0.61

And then O=C(O)CCCCC(CCSCc1ccccc1)SCc1ccccc1 (configuration not stated) [CPI-613] + CCNC(=O)c1noc(-c2cc(C(C)C)c(O)cc2O)c1-c1ccc(CN2CCOCC2)cc1 [Luminespib] (partner 0.01 µM) , what is it?
0.533

What do we get for O=C(O)CCCCC(CCSCc1ccccc1)SCc1ccccc1 (configuration not stated) [CPI-613] + CC1(C)CCC(c2ccc(Cl)cc2)=C(CN2CCN(c3ccc(C(=O)NS(=O)(=O)c4ccc(N[C@H](CCN5CCOCC5)CSc5ccccc5)c(S(=O)(=O)C(F)(F)F)c4)cc3)CC2)C1 [Navitoclax] (partner 0.5 µM) ?
0.671

Again, but for O=C(O)CCCCC(CCSCc1ccccc1)SCc1ccccc1 (configuration not stated) [CPI-613] + CC(=O)Nc1cccc(-n2c(=O)n(C3CC3)c(=O)c3c(Nc4ccc(I)cc4F)n(C)c(=O)c(C)c32)c1 [Trametinib] (partner 0.02 µM)
0.853
